# assaySystem: récepteurs β adrénergiques
# experiment: displacement of [^3H]CGP 12177 previously bound on newborn rat cardiomyocytes
# Type: binding, rats nouveau-nés
# conditionsUsed: summary, unit inferred; read-out: CI50 (the source's name)
pIC50: −log10 of the molar value.

>  <compound>
CC(C)NCC(O)COc1ccc(NC(=O)CCC=CI)cc1 (stereo not shown) [composé 6]

>  <assaySystem>
récepteurs β adrénergiques

>  <pIC50>
5.69

$$$$

###

# assaySystem: récepteurs β adrénergiques
# experiment: displacement of [^3H]CGP 12177 previously bound on newborn rat cardiomyocytes
# Format: binding, rats nouveau-nés
# conditionsUsed: [^3H]CGP 12177 5.10^-9M, 30 minutes d'incubation; cardiomyocytes de rats nouveau-nés; read-out: CI50 (the source's name)
// IC50 lookup, one value per entry

>  <compound>
CC(C)NCC(O)COc1ccc(CC(N)=O)cc1 (centres unmarked) [atenolol, reference compound]

>  <IC50>
19 µM

$$$$
>  <compound>
CC(C)NCC(O)COc1ccc(NC(=O)CCC=CI)cc1 (centres unmarked)

>  <IC50>
2 µM

$$$$
